# Study target: VEGF/GAG (glycosaminoglycan) (Homo sapiens, UniProt P15692)
# Sequence (P15692 1-191 isoform P15692-4): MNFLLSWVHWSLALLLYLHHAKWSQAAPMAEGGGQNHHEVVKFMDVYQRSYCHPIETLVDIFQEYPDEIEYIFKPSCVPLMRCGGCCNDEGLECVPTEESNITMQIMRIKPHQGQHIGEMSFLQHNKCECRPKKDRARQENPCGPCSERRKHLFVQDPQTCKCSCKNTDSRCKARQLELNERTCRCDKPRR
# Protocol description: in vitro inhibition of VEGF/GAG (glycosaminoglycan) binding ([125I]heparin-16-mer / VEGF165 filter binding)
# Condition label: purified VEGF165 20 nM, 60 minutes at room temperature, 0.16% DMSO
pIC50: −log10 of the molar value.
Outcome measure: pIC50

COc1ccccc1C1CC(NC(=O)Nc2cccc(C(=O)NS(C)(=O)=O)c2)C(=O)N(CC(=O)NC(C)(C)C)C(c2ccccc2)C1 (stereo not shown) | 5.24
Cc1ccccc1C1CC(NC(=O)Nc2ccc3[nH]nnc3c2)C(=O)N(CC(=O)NC(C)(C)C)C(c2ccccc2)C1 (stereo not shown) | 5.80

1: Cc1ccccc1C1CC(NC(=O)Nc2cccc(-c3nnn[nH]3)c2)C(=O)N(CC(=O)NC(C)(C)C)C(c2ccccc2)C1 (stereo not shown)
2: Cc1ccccc1C1CC(NC(=O)Nc2cccc(C(=O)NS(=O)(=O)C(F)(F)F)c2)C(=O)N(CC(=O)NC2(C)CCCCC2)C(c2ccccc2)C1 (stereo not shown)
stdin: # argmax over pIC50 for candidates 1 and 2 // caller expects the label of the chosen entry
stdout: 2

====

# Study target: VEGF/GAG (glycosaminoglycan) (Homo sapiens, UniProt P15692)
# Construct: purchased Repligen, Inc
# Protocol description: in vitro inhibition of VEGF/GAG (glycosaminoglycan) binding ([125I]heparin-16-mer / VEGF165 filter binding)
# Condition label: purified VEGF165 20 nM, 60 minutes at room temperature, 0.16% DMSO
Outcome measure: IC50 (µM)

Cc1ccc2c(c1)N(CC(=O)NC(C)(C)C)C(=O)C(NC(=O)Nc1cccc(-c3nnn[nH]3)c1)CC2C1CCCCC1 (stereo not shown) | 4.3
Cc1ccccc1C1CC(NC(=O)Nc2cccc(C(=O)NS(=O)(=O)c3ccccc3)c2)C(=O)N(CC(=O)NC(C)(C)C)C(c2ccccc2)C1 (stereo not shown) | 1.4

I: Cc1ccccc1C1CC(NC(=O)Nc2cccc(C(=O)Nc3nnn[nH]3)c2)C(=O)N(CC(=O)NC2(C)CCCCC2)C(c2ccccc2)C1 (stereo not shown)
II: CC1(C)CN(C(=O)CN2C(=O)C(NC(=O)Nc3cccc(-c4nnn[nH]4)c3)COc3cc(F)ccc32)CC(C)(C)C1 (stereo not shown)
stdin: Which of the two items, I and II , has the greater recorded IC50? Your answer should be the label of the entry you select.
stdout: II
(II: 3.7 µM, I: 2.3 µM)
